The measured values listed here are drawn from PubChem BioAssay AID1159580.

This section presents compounds with their documented normalized growth values.
test: chemical genetic growth profiling, strain panel (AID 1159580);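 also: tested at 20 µM; growth read once vehicle control cultures reached saturation at 30 °C; 1 = growth at the plate median or of vehicle wells; lower values mean less growth of the strain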; details: S. cerevisiae deletion strains, growth OD, locus YLR027C, strain aat2, active compounds read low
Out of some 5,500 compounds screened, about 2,000 (36%) were called active. About 18% were inconclusive and are not listed. This is one part of the list.
Just the number, please, no unit after it.

See these solved cases before continuing.
>>> result("CC1(C)C(=O)C=C[C@@]2(C)C1C=C[C@]1(C)C2CC[C@@]2(C)[C@H](c3ccoc3)OC(=O)C3OC321 (some centres undefined)")
0.959
>>> result("CC1(C)C(=O)C=C[C@@]2(C)C1CC(=O)[C@]1(C)C2CC[C@@]2(C)[C@H](c3ccoc3)OC(=O)[C@H]3O[C@]321 (some centres undefined)")
1
>>> result("CC1(C)O[C@H]2CC(=O)OC[C@]23[C@H]2CC[C@@]4(C)[C@H](c5ccoc5)OC(=O)[C@H]5O[C@]54[C@]2(C)C(=O)C[C@@H]13")
0.965

Continue with the compound presented below.
Recorded result, CC1(C)C(=O)C=C[C@@]2(C)C1C[C@@H](O)[C@]1(C)C2CC[C@@]2(C)[C@H](c3ccoc3)OC(=O)[C@H]3O[C@]321 (some centres undefined) , normalized growth: 1.02
